# protocol.text: PK/PD duration of effect study, single oral gavage dose: administered compound level in liver
# Type: in vivo, C57BL/6 mice
# conditions: C57BL/6, mouse, 500 mg/kg oral gavage, read-out: tmax of transcyclohexyl NaR dimer
quantity.kind: Tmax (min)

{"compound": "CC(=O)OC[C@H]1O[C@@H]([n+]2cccc(C(=O)O[C@H]3CC[C@H](OC(=O)c4ccc[n+]([C@@H]5O[C@H](COC(C)=O)[C@@H](OC(C)=O)[C@H]5OC(C)=O)c4)CC3)c2)[C@H](OC(C)=O)[C@@H]1OC(C)=O [transcyclohexyl NaR dimer]", "units.of.measure": "min", "numeric.readout": 15}
